Please respond with reported EC50 for every item in the list.
method: Luminescence Cell-Based Dose Response HTS to Identify Inhibitors of 5'UTR Stem-Loop Driven Prion Protein mRNA Translation in H4 Neuroglioblastoma Cells. [Related pubchem assays: 1827 (Project Summary), 1813 (Primary HTS)]
Type: functional
Active and inactive are the calls of the source. Cut-off read from the data, not from the text of the source: actives have a measured EC50 and inactives only a lower limit.

Problem: # query: EC50 of entry CC12CC[C@H]3[C@@H](CCC4(O)C[C@H](O)CCC34/C=N/NC(=O)c3ccccc3[N+](=O)[O-])C1(O)CCC2C1=CC(=O)OC1 (some centres not stated)
Result: 11.9 µM (active)

Problem: # query: EC50 of entry CC(Nc1ccccc1CO)C(=O)Nc1cccc(Cl)c1Cl (configuration not stated)
Result: 0.12 µM (active)

Problem: # query: EC50 of entry "COc1c(Br)cc([N+](=O)[O-])c(OC)c1C(=O)NC(=O)Nc1cc(Cl)cc(Cl)c1"
Result: 17.8 µM (active)

Problem: # query: EC50 of entry "Cc1cccc(-c2nnc3n2N=C(c2ccccc2)CS3)c1"
Result: > 120 µM (not active)

Problem: # query: EC50 of entry COC(=O)C1CC23C=CCN4CCC5(c6ccccc6NC15C2C)C43 (configuration not stated)
Result: 2.28 µM (active)

Problem: # query: EC50 of entry "O=C(Nc1nc2cc3c(cc2s1)OCO3)C1=COCCO1"
Result: 6.64 µM (active)

Problem: # query: EC50 of entry "O=C(NNC(=O)C12CC3CC(CC(C3)C1)C2)c1ccccc1F"
Result: > 120 µM (not active)
